Target: Sentrin-specific protease 6 (Homo sapiens, UniProt Q9GZR1);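 also: Luminescence-based dose-response confirmatory assay of SENP6 inhibition, following up an ultra-high-throughput screen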
Sequence (Q9GZR1 whole entry): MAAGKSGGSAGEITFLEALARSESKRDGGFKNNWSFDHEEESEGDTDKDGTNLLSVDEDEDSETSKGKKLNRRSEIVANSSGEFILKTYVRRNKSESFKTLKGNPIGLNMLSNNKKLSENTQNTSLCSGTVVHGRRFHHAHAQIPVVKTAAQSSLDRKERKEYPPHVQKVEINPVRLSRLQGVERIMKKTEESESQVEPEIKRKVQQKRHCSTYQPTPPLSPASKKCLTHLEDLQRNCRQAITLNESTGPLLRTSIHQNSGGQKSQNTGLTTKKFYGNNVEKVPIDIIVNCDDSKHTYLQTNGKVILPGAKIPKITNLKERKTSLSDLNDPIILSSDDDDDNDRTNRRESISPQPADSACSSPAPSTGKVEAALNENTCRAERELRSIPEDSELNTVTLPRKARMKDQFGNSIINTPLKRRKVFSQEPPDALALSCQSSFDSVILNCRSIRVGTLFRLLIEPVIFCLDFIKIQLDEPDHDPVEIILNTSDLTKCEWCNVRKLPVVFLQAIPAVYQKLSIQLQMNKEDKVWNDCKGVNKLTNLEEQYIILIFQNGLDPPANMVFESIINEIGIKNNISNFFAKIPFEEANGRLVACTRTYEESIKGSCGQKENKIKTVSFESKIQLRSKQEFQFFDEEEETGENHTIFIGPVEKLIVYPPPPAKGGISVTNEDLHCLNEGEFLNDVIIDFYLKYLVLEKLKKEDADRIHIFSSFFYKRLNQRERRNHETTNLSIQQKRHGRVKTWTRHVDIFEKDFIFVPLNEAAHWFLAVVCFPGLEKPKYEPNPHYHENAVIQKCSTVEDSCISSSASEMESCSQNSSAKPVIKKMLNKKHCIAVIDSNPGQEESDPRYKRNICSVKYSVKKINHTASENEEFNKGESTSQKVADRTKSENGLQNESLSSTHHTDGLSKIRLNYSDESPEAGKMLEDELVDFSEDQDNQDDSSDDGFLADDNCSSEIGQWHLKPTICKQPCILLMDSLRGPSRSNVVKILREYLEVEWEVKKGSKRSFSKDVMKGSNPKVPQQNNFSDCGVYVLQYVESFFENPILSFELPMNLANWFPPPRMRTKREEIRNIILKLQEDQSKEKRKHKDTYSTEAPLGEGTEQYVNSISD
Format: functional
The source made the active and inactive calls.
Log the outcome using a class from true (1) (active), false (0) (inactive)

Sample answers from the record:
Entry Cc1cc(C(=O)N=Nc2c(O)n(C)c3ccccc23)c(C)o1 : call = ?
true (1)

Input Cc1ccc(-c2cc(-c3cccc(F)c3)[nH]n2)c(O)c1
true (1)

Now give it for Cc1ccc(C(=O)NNc2cc(N3CCCC3)nc(N3CCCC3)n2)cc1 too.
true (1)

***
Returns: the outcome recorded for Oc1ccc(-c2nc3ccccn3c2NCc2ccco2)cc1 in this assay.
true (1)

For Cc1cc(/C=C2\SC(=S)N(C)C2=O)c(C)n1-c1ccc(O)cc1 then?
true (1)

How about CN(C)c1ccc(N=Nc2cccc3ccoc23)cc1 ?
true (1)

Oc1nc(Nc2ccccc2)sc1/C=C1\C=Nc2ccccc21 ?
false (0)

# repeat for Cc1ccc(COc2ccc(/C=N/O)cc2)cc1
true (1)

###

assay: P. falciparum 3D7-ScDHODH growth inhibitors, dose response, SYBR Green, dry powder samples (AID 1159570); type: functional, cell-based;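 also: parasite growth measured after 72 hours of compound exposure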
Activity calls are given as the source filed them.
Measured Parameter: AC50

Worked cases, AC50 given:
Quick one: AC50 for C[C@@H]1CN([C@@H](C)CO)C(=O)c2c(c3ccccc3n2C)-c2ccccc2CO[C@@H]1CN(C)Cc1ccc(Oc2ccccc2)cc1 ?
3.44 µM (active)

Next: O=C(Nc1ccc(-c2ccccc2)cc1)[C@H]1[C@H](CO)[C@H]2Cn3c(cccc3=O)[C@@H]1N2Cc1ccccc1
1.24 µM (active)

What about N#C[C@@H]1[C@H](c2ccc(-c3cccc(F)c3)cc2)[C@@H](CO)N1C(=O)NC1CCCC1 ?
13 µM (active)

Now the same for COc1ccccc1C#Cc1ccc([C@H]2[C@@H](CO)N(C(=O)C3CC3)[C@H]2C#N)cc1
2.22 µM (active)

Moving on to another compound below.
Give the measured AC50 of C[C@@H]1CN([C@H](C)CO)C(=O)c2ccccc2-c2ccccc2CO[C@H]1CN(C)C(=O)Nc1cccc(C(F)(F)F)c1 .
1.19 µM (active)
